The reported measurements were obtained from patent US20230107642A1.

EXPERIMENTAL_SYSTEM: K-Ras G12C (Homo sapiens, UniProt P01116, G12C)
Construct: This protein contained 188 amino acids in total, including an N-terminal 6-Histidine tag; made in house; host or cells: E. coli BL21
EXPERIMENT_DESCRIPTION: CAF assay (% CAF; method in Example 7, not in this part)
Assay type: binding
CONDITION_DESCRIPTION: 10 uM, 1 h; Table 3
ENDPOINT: % CAF @ 10 uM, 1h (%)

Examples with their reported % CAF @ 10 uM, 1h follow.
* C=CC(=O)N1CCN(c2nc(=O)n3c4c(c(-c5ccc(F)cc5F)c(Cl)cc24)SCC3)C[C@@H]1C [Example 140] | 90.6
* C=CC(=O)N1CCN(c2nc(=O)n3c4c(c(-c5cc(Cl)ccc5F)c(Cl)cc24)SCC3)[C@@H](C)C1 [Example 175] | 79.8
* C=CC(=O)N1CCN(c2nc(=O)n3c4c(c(-c5cc(O)ccc5F)c(Cl)cc24)SCC3)[C@@H](C)C1 [Example 152] | 55.3
* C=CC(=O)N1CCN(c2nc(=O)n3c4c(c(-c5ccc(F)cc5F)c(Cl)cc24)SCC3)[C@@H](CO)C1 [Example 150] | 59.9
* C=CC(=O)N1CCN(c2nc(=O)n3c4c(c(-c5ccc(F)cc5F)c(Cl)cc24)SCC3CN2CCOCC2)[C@@H](C)C1 (some centres unmarked) [Example 147] | 44.6

a = C=CC(=O)N1CCN(c2nc(=O)n3c4c(c(-c5cccc6ccccc56)c(Cl)cc24)SCC3)[C@@H](C)C1 (atropisomer, axis not shown) [Example 172]
b = C=CC(=O)N1CCN(c2nc(=O)n3c4c(c(-c5ccc(F)cc5F)c(OC)cc24)SCC3)[C@@H](C)C1 [Example 103]
Prompt line: // which entry reports the smaller % CAF @ 10 uM, 1h, a or b ? Kindly give the label for the entry you pick.
Response line: a

P = C=CC(=O)N1C[C@H](C)N(c2nc(=O)n3c4c(c(-c5cccc6ccccc56)c(Cl)cc24)SCC3)C[C@H]1C (atropisomer, axis not shown) [Example 183]
Q = C=CC(=O)N1CCN(c2nc(=O)n3c4c(c(-c5c(F)cccc5F)c(Cl)cc24)SCC3)[C@@H](C)C1 [Example 170]
Prompt line: Endpoint returns whichever of P and Q has the numerically higher % CAF @ 10 uM, 1h. Kindly give the label for the entry you pick.
Response line: Q
